Values compiled from the supplement of paper PMC6897291.

- Tested on: RIVA
- assayOverview: growth inhibition by drug plus 177Lu-lilotomab satetraxetan (1 - RLU/untreated control) (fraction); higher = stronger inhibition
- conditionDetails: 10 nM; time (day): 6; 177Lu-lilotomab satetraxetan 0.5 ug/ml
Item-by-item account of growth inhibition by drug plus 177Lu-lilotomab satetraxetan
Just the number, please, no unit attached.

Example compounds with recorded growth inhibition by drug plus 177Lu-lilotomab satetraxetan:
compound	targetOrSystem	recordedValue
CC(=O)O[C@H]1C(=O)[C@@]2(C)[C@H]([C@H](OC(=O)c3ccccc3)[C@]3(O)C[C@H](OC(=O)[C@H](O)[C@@H](NC(=O)c4ccccc4)c4ccccc4)C(C)=C1C3(C)C)[C@]1(OC(C)=O)CO[C@@H]1C[C@@H]2O [Paclitaxel (Taxol)]	RIVA	0.986
CC(C)CC(=O)Nc1n[nH]c2c1CN(C(=O)C1CCN(C)CC1)C2(C)C	RIVA	0.549

Continue with the compound presented below.
Incoming: # get_value(readout='growth inhibition by drug plus 177Lu-lilotomab satetraxetan', item= `CCc1cc(-c2n[nH]c(C)c2-c2ccc3c(c2)OCCO3)c(O)cc1O` )
Outgoing: 0.581
